Biological target: Csk (C-Src kinase) (Homo sapiens, UniProt P41240)
Construct: glutathione-S-transferase (GST) (N); made in house; host or cells: E. coli
Sequence (P41240 whole entry): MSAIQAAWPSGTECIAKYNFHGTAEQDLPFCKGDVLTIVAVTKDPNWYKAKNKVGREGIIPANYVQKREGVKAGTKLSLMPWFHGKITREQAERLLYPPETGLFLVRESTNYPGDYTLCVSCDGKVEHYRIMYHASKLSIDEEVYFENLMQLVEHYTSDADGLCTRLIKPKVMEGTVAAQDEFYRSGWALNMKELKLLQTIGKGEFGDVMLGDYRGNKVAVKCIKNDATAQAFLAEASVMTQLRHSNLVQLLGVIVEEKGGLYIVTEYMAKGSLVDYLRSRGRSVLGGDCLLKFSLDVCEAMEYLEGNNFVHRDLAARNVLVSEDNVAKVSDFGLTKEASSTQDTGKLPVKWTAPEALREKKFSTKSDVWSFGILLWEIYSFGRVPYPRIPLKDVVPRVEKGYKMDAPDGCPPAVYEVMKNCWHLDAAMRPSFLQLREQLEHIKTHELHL
Experiment: Csk tyrosine kinase activity, poly E4Y and 32P-ATP
Format: biochemical
Settings: apparent value against variable poly E4Y
reported metric: pKi
Recall that pKi is obtained by taking minus log10 of the concentration measured in molar.

query: What measured pKi goes with O=C1[C@H](Cc2ccc(O)cc2)N=C(c2ccc(O)cc2)c2cc(Cl)ccc2N1Cc1ccc(-c2ccccc2)cc1 ?
result: 4.20

---

Below, each entry is listed alongside its reported pKi.
Target: Src (Homo sapiens, UniProt P12931)
Sequence (P12931 whole entry, species assumed): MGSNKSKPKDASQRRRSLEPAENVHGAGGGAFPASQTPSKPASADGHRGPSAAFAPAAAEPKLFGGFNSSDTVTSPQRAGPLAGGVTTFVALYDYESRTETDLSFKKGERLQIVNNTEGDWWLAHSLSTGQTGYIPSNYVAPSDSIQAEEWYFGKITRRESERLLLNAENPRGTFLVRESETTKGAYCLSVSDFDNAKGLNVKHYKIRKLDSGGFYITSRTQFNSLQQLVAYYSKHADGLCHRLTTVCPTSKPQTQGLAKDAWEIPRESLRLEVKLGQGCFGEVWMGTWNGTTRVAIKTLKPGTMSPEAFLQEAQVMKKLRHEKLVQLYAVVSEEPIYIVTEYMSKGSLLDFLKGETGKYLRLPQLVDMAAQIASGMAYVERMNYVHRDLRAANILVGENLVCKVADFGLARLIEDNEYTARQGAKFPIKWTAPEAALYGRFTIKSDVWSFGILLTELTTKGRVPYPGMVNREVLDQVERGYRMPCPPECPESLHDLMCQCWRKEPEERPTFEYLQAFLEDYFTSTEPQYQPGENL
Recall that pKi is obtained by taking minus log10 of the concentration measured in molar.

Solved cases below.
[[record]]
structure_as_smiles = "O=C1[C@H](Cc2ccc(O)cc2)N=C(c2ccc(O)cc2)c2cc(Cl)ccc2N1Cc1ccc(-c2ccccc2)cc1"
tested_system = "Src (Homo sapiens, UniProt P12931)"
measured_number = 4.70

[[record]]
structure_as_smiles = "O=C1[C@@H](Cc2ccc(O)cc2)N=C(c2ccc(O)cc2)c2cc(Cl)ccc2N1Cc1ccc(-c2ccccc2)cc1"
tested_system = "Src (Homo sapiens, UniProt P12931)"
measured_number = 4.37


query: What measured pKi goes with O=C1[C@H](Cc2ccc(O)cc2)N=C(c2ccc(O)cc2)c2cc(Cl)ccc2N1Cc1ccccc1 ?
result: 4.13

---

Below, each entry is listed alongside its reported pIC50.
Molecular target: Src (Homo sapiens)
Recall that pIC50 is obtained by taking minus log10 of the concentration measured in molar.

Solved cases below.
[[record]]
structure_as_smiles = "O=C1[C@H](Cc2ccc(O)cc2)N=C(c2ccc(O)cc2)c2cc(Cl)ccc2N1Cc1ccccc1"
reported_metric = "pIC50"
measured_number = 3.72

[[record]]
structure_as_smiles = "O=C1[C@H](Cc2ccc(O)cc2)N=C(c2ccc(O)cc2)c2cc(Cl)ccc2N1Cc1ccc(-c2ccccc2)cc1"
reported_metric = "pIC50"
measured_number = 4.14


Now look at this one.
query: What measured pIC50 goes with O=C1[C@@H](Cc2ccc(O)cc2)N=C(c2ccc(O)cc2)c2cc(Cl)ccc2N1Cc1ccc(-c2ccccc2)cc1 ?
result: 4.01

---

Molecular target: hexokinase (HXK)
Assay: Enzyme panel: hexokinase
Format: biochemical
reported metric: pIC50
Recall that pIC50 is obtained by taking minus log10 of the concentration measured in molar.

query: What measured pIC50 goes with O=C1[C@H](Cc2ccc(O)cc2)N=C(c2ccc(O)cc2)c2cc(Cl)ccc2N1Cc1ccccc1 [L-Tyr,Bnz] ?
result: 3.45

---

Read-out record for Csk (C-Src kinase) (Homo sapiens, UniProt P41240): pIC50
Recall that pIC50 is obtained by taking minus log10 of the concentration measured in molar.

[[record]]
structure_as_smiles = "O=C1[C@H](Cc2ccc(O)cc2)N=C(c2ccc(O)cc2)c2cc(Cl)ccc2N1Cc1ccccc1"
measured_number = 3.39


query: I'm curious: which pIC50 was measured for O=C1[C@H](Cc2ccc(O)cc2)N=C(c2ccc(O)cc2)c2cc(Cl)ccc2N1Cc1ccc(-c2ccccc2)cc1 tested on Csk (C-Src kinase) (Homo sapiens, UniProt P41240)?
result: 3.87

query: What do you get for O=C1[C@@H](Cc2ccc(O)cc2)N=C(c2ccc(O)cc2)c2cc(Cl)ccc2N1Cc1ccc(-c2ccccc2)cc1 ?
result: 3.39
